Assay: Docetaxel pharmacokinetic
Format: in vivo, mice
Settings: FVB, mouse, plasma, iv, 3 mg/kg
MEASUREMENT NAME: AUC

Inquiry: For CC(=O)O[C@@]12CO[C@@H]1C[C@H](O)[C@@]1(C)C(=O)[C@H](O)C3=C(C)[C@@H](OC(=O)[C@H](O)[C@@H](NC(=O)OC(C)(C)C)c4ccccc4)C[C@@](O)([C@@H](OC(=O)c4ccccc4)[C@H]21)C3(C)C , write its AUC.
Reply text: 0.523 µM·h

---

Assay: Docetaxel pharmacokinetic
Type: in vivo, mice
Conditions: FVB, mouse, heart, iv, 3 mg/kg
MEASUREMENT NAME: AUC (µM·h)
Give bare numbers, in µM·h.

Inquiry: Find the measured AUC of CC(=O)O[C@@]12CO[C@@H]1C[C@H](O)[C@@]1(C)C(=O)[C@H](O)C3=C(C)[C@@H](OC(=O)[C@H](O)[C@@H](NC(=O)OC(C)(C)C)c4ccccc4)C[C@@](O)([C@@H](OC(=O)c4ccccc4)[C@H]21)C3(C)C and report it.
Reply text: 13

---

Assay: Docetaxel pharmacokinetic
Type: in vivo, mice
Conditions: FVB, mouse, intestine, iv, 3 mg/kg
MEASUREMENT NAME: AUC
Answer with the figure and its unit, nothing else.

Inquiry: Could you please provide reported AUC for CC(=O)O[C@@]12CO[C@@H]1C[C@H](O)[C@@]1(C)C(=O)[C@H](O)C3=C(C)[C@@H](OC(=O)[C@H](O)[C@@H](NC(=O)OC(C)(C)C)c4ccccc4)C[C@@](O)([C@@H](OC(=O)c4ccccc4)[C@H]21)C3(C)C [docetaxel, Docetaxel] ? Thanks!
Reply text: 3.21 µM·h

---

Experiment: Docetaxel pharmacokinetic
Type: in vivo, mice
Settings: FVB, mouse, liver, iv, 3 mg/kg
MEASUREMENT NAME: AUC (µM·h)
One number for each entry, in µM·h.

Inquiry: Supply recorded AUC for CC(=O)O[C@@]12CO[C@@H]1C[C@H](O)[C@@]1(C)C(=O)[C@H](O)C3=C(C)[C@@H](OC(=O)[C@H](O)[C@@H](NC(=O)OC(C)(C)C)c4ccccc4)C[C@@](O)([C@@H](OC(=O)c4ccccc4)[C@H]21)C3(C)C here.
Reply text: 4.34

---

Assay: Docetaxel pharmacokinetic
Type: in vivo, mice
Details: FVB, mouse, brain, iv, 3 mg/kg
MEASUREMENT NAME: AUC (µM·h)
One number for each entry, in µM·h.

Inquiry: Respond only with AUC recorded for CC(=O)O[C@@]12CO[C@@H]1C[C@H](O)[C@@]1(C)C(=O)[C@H](O)C3=C(C)[C@@H](OC(=O)[C@H](O)[C@@H](NC(=O)OC(C)(C)C)c4ccccc4)C[C@@](O)([C@@H](OC(=O)c4ccccc4)[C@H]21)C3(C)C [docetaxel, Docetaxel]
Reply text: 0.184
